# assay_system: NADPH oxidase 2 (Homo sapiens) (UniProt P04839)
# Sequence (P04839 whole entry, looked up): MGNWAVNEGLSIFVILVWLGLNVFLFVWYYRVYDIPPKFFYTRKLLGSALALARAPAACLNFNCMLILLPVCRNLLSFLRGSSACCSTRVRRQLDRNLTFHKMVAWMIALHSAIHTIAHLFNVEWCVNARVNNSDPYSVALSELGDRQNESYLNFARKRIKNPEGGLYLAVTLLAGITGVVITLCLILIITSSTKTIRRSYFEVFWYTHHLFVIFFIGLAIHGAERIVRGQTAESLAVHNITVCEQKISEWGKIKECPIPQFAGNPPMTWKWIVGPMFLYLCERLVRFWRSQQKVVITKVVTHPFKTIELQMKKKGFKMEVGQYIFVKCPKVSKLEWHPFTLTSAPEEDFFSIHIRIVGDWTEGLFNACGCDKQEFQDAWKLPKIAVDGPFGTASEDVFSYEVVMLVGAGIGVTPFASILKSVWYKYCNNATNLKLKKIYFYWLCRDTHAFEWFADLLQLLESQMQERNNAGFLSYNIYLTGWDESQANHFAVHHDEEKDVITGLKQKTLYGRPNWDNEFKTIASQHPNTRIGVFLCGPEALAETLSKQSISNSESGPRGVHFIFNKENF
# experimental_details: NOX2-dependent H2O2 signal modulators, primary screen, NOX inhibitor project, cell-based, HEK293-NOX2, PMA-stimulated, Amplex Red fluorescence (AID 1159); note: test concentration not given here
# details: 45 min, higher = more signal, called active from +8 up or from −8 down
Reported z-score values for the following compounds.
endpoint: z-score

>>> test_result("COC(=O)[C@@H]1CC[C@H](C)[C@@H](c2ccc(C)cc2)N1C(=O)c1ccc(C=NO[C@@H](C)c2cc(-c3c(C)cc(C)cc3C)no2)cc1")
0.564
>>> test_result("CCOC(=O)[C@H](Cc1ccccc1)NC(=O)CCC1CC(OC(=O)NCc2ccc3c(c2)OCO3)CC2(CCCC(COC(=O)NCCc3ccc(Cl)cc3)O2)O1 (stereo not given in full)")
-0.194
>>> test_result("C=CC[C@@H]1C=C[C@H](ON=CC[C@@H]2C=C[C@H](OC(C)=O)[C@@H](COC(C)=O)O2)[C@@H](CO)O1")
-0.893
>>> test_result("C=CCOCC1CN2[C@@H](CC[C@@H](C)[C@@H]2c2ccc(Br)cc2)C(=O)O1 (stereo not given in full)")
0.286
>>> test_result("CC=CC1=C(CO)[C@H](O)[C@H]2O[C@H]2[C@@H]1O")
0.623
>>> test_result("CCN1C(=O)[C@H]2[C@H]3[C@H](O)[C@H](O)CC(=NO[C@H](C)c4cn([C@@H]5COC[C@H]5O)nn4)[C@@H]3CC[C@H]2C1=O")
0.477
>>> test_result("CCOC(=O)[C@H](Cc1ccccc1)NC(=O)CCC1CC(OC(=O)NCc2ccc3c(c2)OCO3)CC2(CCCC(COC(=O)NCCCN3CCCC3=O)O2)O1 (stereo not given in full)")
0.996
>>> test_result("CC(=O)OC[C@H]1O[C@@H](ON=C2[C@H]3CCn4c(=O)n(-c5ccccc5)c(=O)n4[C@H]3[C@H](O)[C@@H]3O[C@H]23)[C@H](OC(C)=O)[C@@H](OC(C)=O)[C@@H]1OC(C)=O")
-0.186
>>> test_result("CCOC(=O)[C@H](Cc1ccccc1)NC(=O)CCC1CC(OC(=O)NCCc2ccc(F)cc2)CC2(CCCC(COC(=O)NCCC(C)C)O2)O1 (stereo not given in full)")
-0.0979
>>> test_result("COc1cccc([C@H]2Oc3ccc(OC)cc3C(=NO[C@@H](C)c3cc(-c4c(C)cc(C)cc4C)no3)[C@@H]2O)c1")
0.314
>>> test_result("CCOC(=O)[C@H](Cc1ccccc1)NC(=O)CCC1CC(OC(=O)NCc2cccc3ccccc23)CC2(CCCC(COC(=O)NCc3ccc4c(c3)OCO4)O2)O1 (stereo not given in full)")
0.691
>>> test_result("COC(=O)CC=C[C@@H](C)[C@@H](C=NOC[C@@H](O)COCc1ccco1)NS(=O)(=O)c1ccc(C)cc1")
0.017
>>> test_result("CC[C@@H](c1ccccc1)n1c(=O)n2n(c1=O)[C@H]1[C@H](O)[C@@H]3O[C@@H]3C(=NOCc3ccccc3)[C@H]1CC2")
1.55
>>> test_result("C[C@@H]1CC[C@H]2C(=O)OC(CN3C(=O)c4ccccc4C3=O)CN2[C@H]1c1ccc(Br)cc1 (stereo not given in full)")
0.371
>>> test_result("CN1CCc2nc(-c3ccccc3)c(-c3ccccc3)cc2C1")
-0.512

###

Reported z-score values for the following molecules.
# experimental_details: mitochondrial membrane potential change in A549 cells, profiling panel, cell-based, JC-1 fluorescence, basal, 24 h, 100 nL (AID 1138);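 note: A549 lung adenocarcinoma cells under basal conditions with no added stimulus; test concentration not given here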
# details: higher = more signal
endpoint: z-score

>>> test_result("COC(=O)[C@@H]1CC[C@H](C)[C@@H](c2ccc(Br)cc2)N1C(=O)C(F)(F)F")
0.0789
>>> test_result("CC(CCN1CCCCc2nc(C)c(C)cc21)=NO[C@H](C)c1cn([C@@H]2COC[C@H]2O)nn1")
-0.624
>>> test_result("CC=CC1=C(CO)[C@H](O)[C@H]2O[C@H]2[C@@H]1O")
-0.537
>>> test_result("C[C@H]1CC[C@@H](C(=O)O)N[C@@H]1c1cccc(N2CCCC2=O)c1")
1.21
>>> test_result("O=C1[C@H]2[C@H]3[C@H](O)[C@H](O)CC(=NO[C@@H]4O[C@H](CO)[C@@H](O)[C@H](O)[C@H]4O)[C@H]3CC[C@H]2C(=O)N1c1ccc(F)cc1F")
-0.352
>>> test_result("CON=C1c2cc(OC)ccc2O[C@H](c2cccc(OC)c2)[C@H]1O")
0.314
>>> test_result("COc1ccc(COC(=O)NN=C2C[C@@H](O)[C@@H](O)[C@@H]3[C@@H]4C(=O)N(c5cccc(Oc6ccccc6)c5)C(=O)[C@@H]4CC[C@H]23)cc1")
-0.593
>>> test_result("C[C@@H]1CC[C@H]2C(=O)OC(CN3C(=O)c4ccccc4C3=O)CN2[C@H]1c1ccc(Br)cc1 (stereo partly drawn)")
0.0226

###

# experimental_details: E. coli acrAB mutant growth effects, primary screen, E. coli filamentation inducers, strain DRC39, OD650, 24 h (AID 1178);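 note: growth measured as culture turbidity by optical density at 650 nm; test concentration not given here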
# details: higher = more signal, called active from +8 up or from −8 down
Reported z-score values for the following molecules.
endpoint: z-score

>>> test_result("COC(=O)[C@@H]1CC[C@H](C)[C@@H](c2ccc(C)cc2)N1C(=O)c1ccc(C=NOC[C@@H](O)[C@H]2O[C@@H]3OC(C)(C)O[C@@H]3[C@H]2O)cc1")
0.507
>>> test_result("CC(=O)OC[C@H]1O[C@H](CCON=C(C)C)C=C[C@@H]1OC(C)=O")
0.795
>>> test_result("CCN1C(=O)[C@H]2[C@H]3[C@H](O)[C@H](O)CC(=NO[C@H](C)c4cn([C@@H]5COC[C@H]5O)nn4)[C@@H]3CC[C@H]2C1=O")
0.319
>>> test_result("O=C1CCCC=C1C(O)c1ccc([N+](=O)[O-])cc1 (configuration not stated)")
0.47
>>> test_result("C#CCCCON=C1[C@H]2CCn3c(=O)n([C@@H](CC)c4ccccc4)c(=O)n3[C@H]2[C@H](O)[C@@H]2O[C@H]12")
-0.529
>>> test_result("C#CCCCON=C1[C@H]2CCn3c(=O)n(Cc4cc5c(cc4Cl)OCO5)c(=O)n3[C@H]2[C@H](O)[C@@H]2O[C@H]12")
0.313
>>> test_result("CCC1=NOC(CCC2CC(OC(=O)NCc3cccc4c3OCO4)CC3(CCCC(COC(=O)NCCc4ccc(Cl)cc4)O3)O2)C1 (configuration not stated)")
0.137

###

# experimental_details: RPMI8226 myeloma cell viability, profiling panel, resazurin fluorescence, basal, 24 h, PK04 Diversity Set (AID 1180);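 note: RPMI8826 multiple myeloma cell line at 5000 cells per well; test concentration not given here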
# details: higher = more signal
Reported z-score values for the following molecules.
endpoint: z-score

>>> test_result("CON=C1c2cc(OC)ccc2O[C@H](c2cccc(OC)c2)[C@H]1O")
0.411
>>> test_result("CC(C)[C@H](NC(=O)OC(C)(C)C)[C@@H](O)CC(=O)C(C)(C)C")
-0.816
>>> test_result("C[C@@H]1CC[C@@H](C(=O)O)N[C@H]1c1cccc(N2CCOCC2)c1")
0.198
>>> test_result("CCOC(=O)[C@H](CC(C)C)NC(=O)CCC1CC(OC(=O)NCCc2ccc(F)cc2)CC2(CCCC(COC(=O)NCc3cccc(C(F)(F)F)c3)O2)O1 (stereo partly drawn)")
0.15
>>> test_result("CCCCOC(OCCCC)C(O)CSc1ccc2ccccc2c1 (stereo not drawn)")
-1.37
>>> test_result("O=C(NN=C1C[C@@H](O)[C@@H](O)[C@@H]2[C@@H]3C(=O)N(Cc4ccc5c(c4)OCO5)C(=O)[C@@H]3CC[C@@H]12)OCc1ccccc1")
-0.32
>>> test_result("COC(OC)[C@@H](C)[C@H](OC)[C@@H](C)[C@H](OC)c1ccccc1")
-0.466
>>> test_result("CCOC(=O)[C@H](Cc1ccccc1)NC(=O)CCC1CC(OC(=O)NCc2ccc3c(c2)OCO3)CC2(CCCC(COC(=O)NCCCN3CCCC3=O)O2)O1 (stereo partly drawn)")
1.36

###

# assay_system: Epidermal growth factor receptor (Homo sapiens) (UniProt P00533)
# Sequence (P00533 whole entry, looked up): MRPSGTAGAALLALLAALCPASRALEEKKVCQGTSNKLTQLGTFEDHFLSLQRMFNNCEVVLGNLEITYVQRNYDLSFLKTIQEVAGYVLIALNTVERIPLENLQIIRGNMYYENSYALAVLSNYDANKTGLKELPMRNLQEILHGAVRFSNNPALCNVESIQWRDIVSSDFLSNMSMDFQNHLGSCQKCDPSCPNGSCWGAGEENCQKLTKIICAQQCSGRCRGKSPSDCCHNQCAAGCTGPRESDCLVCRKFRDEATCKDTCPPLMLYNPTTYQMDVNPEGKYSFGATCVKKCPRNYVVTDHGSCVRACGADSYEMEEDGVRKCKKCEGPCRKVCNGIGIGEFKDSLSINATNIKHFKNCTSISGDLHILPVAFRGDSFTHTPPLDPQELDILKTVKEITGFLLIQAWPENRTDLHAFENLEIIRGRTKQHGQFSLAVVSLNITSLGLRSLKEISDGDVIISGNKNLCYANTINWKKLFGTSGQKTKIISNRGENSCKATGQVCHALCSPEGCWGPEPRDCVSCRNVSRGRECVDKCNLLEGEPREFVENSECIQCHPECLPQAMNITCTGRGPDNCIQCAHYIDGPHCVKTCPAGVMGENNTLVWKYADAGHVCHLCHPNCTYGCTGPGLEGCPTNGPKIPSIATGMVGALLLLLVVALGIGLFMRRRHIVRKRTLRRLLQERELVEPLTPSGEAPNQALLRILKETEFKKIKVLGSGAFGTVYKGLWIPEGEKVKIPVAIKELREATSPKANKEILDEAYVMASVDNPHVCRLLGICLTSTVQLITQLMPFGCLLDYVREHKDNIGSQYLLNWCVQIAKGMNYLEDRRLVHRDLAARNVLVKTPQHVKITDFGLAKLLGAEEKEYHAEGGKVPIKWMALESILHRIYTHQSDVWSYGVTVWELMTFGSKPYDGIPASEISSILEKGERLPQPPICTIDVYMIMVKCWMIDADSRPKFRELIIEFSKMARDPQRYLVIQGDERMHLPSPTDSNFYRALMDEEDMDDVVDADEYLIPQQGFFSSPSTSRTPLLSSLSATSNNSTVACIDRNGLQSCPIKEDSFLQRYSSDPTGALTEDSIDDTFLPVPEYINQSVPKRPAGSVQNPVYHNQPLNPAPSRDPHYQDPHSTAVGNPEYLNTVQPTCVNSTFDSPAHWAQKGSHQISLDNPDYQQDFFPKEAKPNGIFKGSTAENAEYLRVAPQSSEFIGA
# experimental_details: EGFR binders on small-molecule microarrays, primary screen, biochemical, small-molecule microarray, 635 nm fluorescence (AID 1104);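 note: score merges 667 nm emission intensity with spot signal to noise over triplicate slides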
# details: EGFR binding, higher = more signal
Kind request: treat 0.5 as inclusive, so composite z-score at 0.5 or higher is yes (1), anything lower is no (0).

>>> class_assignment("COC(=O)CC=C[C@@H](C)[C@@H](C=NOC[C@@H](O)COCc1ccco1)OC")
"no (0)"
>>> class_assignment("CC(=O)OC[C@H]1O[C@H](CC=NOC(C)CN2CCCc3nc(C)c(C)cc32)C=C[C@@H]1OC(C)=O (stereo partly specified)")
"no (0)"
>>> class_assignment("CC(C)CON=C1C[C@@H](O)[C@@H](O)[C@@H]2[C@@H]3C(=O)N(Cc4ccccc4)C(=O)[C@@H]3CC[C@H]12")
"yes (1)"
>>> class_assignment("CC(=O)OC[C@H]1O[C@H](CC=NO[C@H](C)c2cn([C@@H]3COC[C@H]3O)nn2)C=C[C@@H]1OC(C)=O")
"no (0)"
>>> class_assignment("CCOC(=O)[C@H](CC(C)C)NC(=O)CCC1CC(OC(=O)NCCc2ccc(F)cc2)CC2(CCCC(COC(=O)NCc3cccc(C(F)(F)F)c3)O2)O1 (stereo partly specified)")
"no (0)"
>>> class_assignment("COC(=O)[C@H](C)NC(=O)CCC1CC(OC(=O)NCCc2ccc(F)cc2)CC2(CCCC(COC(=O)NCCOc3ccccc3)O2)O1 (stereo partly specified)")
"yes (1)"
>>> class_assignment("CC(C)=NO[C@@H](C)c1cn([C@H](CO)Cc2ccccc2)nn1")
"no (0)"
>>> class_assignment("COC(=O)C(C(=O)OC)C1CCCC(=O)C1 (stereo unspecified)")
"no (0)"
>>> class_assignment("COc1ccc(COC(=O)NN=C2C[C@@H](O)[C@@H](O)[C@@H]3[C@@H]4C(=O)N(c5cccc(Oc6ccccc6)c5)C(=O)[C@@H]4CC[C@H]23)cc1")
"no (0)"
>>> class_assignment("CC(=O)OC[C@H]1O[C@H](CCON=C(C)C)C=C[C@@H]1OC(C)=O")
"no (0)"
>>> class_assignment("CC(C)[C@@H](OCc1ccccc1)[C@H](C)C=NOC[C@@H](O)[C@H]1O[C@@H]2OC(C)(C)O[C@@H]2[C@H]1O")
"yes (1)"
>>> class_assignment("CCOC(=O)[C@H](Cc1ccccc1)NC(=O)CCC1CC(OC(=O)NCCc2ccc(F)cc2)CC2(CCCC(COC(=O)NCCOc3ccccc3)O2)O1 (stereo partly specified)")
"yes (1)"
>>> class_assignment("COc1ccc(COC(=O)NN=C2C[C@@H](O)[C@@H](O)[C@@H]3[C@@H]4C(=O)N(Cc5ccc6c(c5)OCO6)C(=O)[C@@H]4CC[C@H]23)cc1")
"no (0)"
>>> class_assignment("CC(C)CON=C1C[C@@H](O)[C@@H](O)[C@@H]2[C@@H]3C(=O)N([C@@H](C)c4ccccc4)C(=O)[C@@H]3CC[C@@H]12")
"no (0)"
>>> class_assignment("CCOC(=O)[C@H](Cc1ccccc1)NC(=O)CCC1CC(OC(=O)NCc2cccc3ccccc23)CC2(CCCC(COC(=O)NCCc3ccc(Cl)cc3)O2)O1 (stereo partly specified)")
"no (0)"
>>> class_assignment("O=C1C[C@H](c2ccccc2)[C@H](c2ccc(Br)cc2)O1")
"no (0)"
>>> class_assignment("COc1ccc(COC(=O)NN=C2C[C@@H](O)[C@@H](O)[C@@H]3[C@@H]4C(=O)N(C5CCCCC5)C(=O)[C@@H]4CC[C@@H]23)cc1")
"no (0)"
>>> class_assignment("CC(=O)OC[C@H]1O[C@@H](ON=C(C)CCN2CCCCc3nc(C)c(C)cc32)[C@H](OC(C)=O)[C@@H](OC(C)=O)[C@@H]1OC(C)=O")
"yes (1)"
>>> class_assignment("CO[C@H]1COC(=O)CCC[C@H](C)[C@H](OC)COC(=O)CC=C[C@@H]1C")
"yes (1)"
>>> class_assignment("CC(C)=NOC(C)CN1CCCc2nc(C)c(C)cc21 (stereo unspecified)")
"yes (1)"
>>> class_assignment("C=C(C)C(=O)OC[C@H]1CN2[C@@H](CC[C@@H](C)[C@@H]2c2ccc(Br)cc2)C(=O)O1")
"no (0)"
>>> class_assignment("CCOC(=O)[C@H](CC(C)C)NC(=O)CCC1CC(OC(=O)NCc2ccc3c(c2)OCO3)CC2(CCCC(COC(=O)NCCOc3ccccc3)O2)O1 (stereo partly specified)")
"no (0)"
>>> class_assignment("C#CCCCON=C1C[C@@H](O)[C@@H](O)[C@@H]2[C@@H]3C(=O)N(CC)C(=O)[C@@H]3CC[C@H]12")
"no (0)"
>>> class_assignment("COC(=O)[C@H](Cc1ccccc1)NC(=O)[C@@H](C)CO")
"yes (1)"
>>> class_assignment("COc1ccc(O[C@H]2C=C[C@@H](c3ccccc3)O[C@@H]2CON=C2c3cc(OC)ccc3O[C@H](c3cccc(OC)c3)[C@H]2O)cc1")
"yes (1)"
>>> class_assignment("CCc1cc2c(nc1CC)CCN(CCC(C)=NOCC[C@@H]1C=C[C@H](OC(C)=O)[C@@H](COC(C)=O)O1)C2")
"yes (1)"
>>> class_assignment("CON=C1c2cc(OC)ccc2O[C@H](c2cccc(OC)c2)[C@H]1O")
"yes (1)"
>>> class_assignment("COc1ccc(O[C@H]2C=C[C@@H](C#Cc3ccccc3)O[C@@H]2CO)cc1")
"no (0)"
>>> class_assignment("CC(C)=CCCC(C)=CCON=C1C[C@@H](O)[C@@H](O)[C@@H]2[C@@H]3C(=O)N(c4cccc(Oc5ccccc5)c4)C(=O)[C@@H]3CC[C@H]12")
"no (0)"
>>> class_assignment("CCCNC(=O)OC[C@H]1O[C@H](CCON=C2c3cc(OC)ccc3O[C@H](c3cccc(OC)c3)[C@H]2O)C=C[C@@H]1Oc1ccc(OC)cc1")
"no (0)"
